protocol: Solution-based assay: residual trans-polydatin after irradiation with 1 molar equivalent of isomerization stabilizer
Type: physicochemical
protocolConditions: 0.5% by weight trans-polydatin in solution + 1 molar equivalent stabilizer; irradiated at 365 nm, 5 J total energy; HPLC-UV; per stabilizer
metricName: Average of Relative Residual Trans-polydatin (percent) (%)

Record excerpt, results attached:
compound	endpointResult
O=C1O[C@H]([C@@H](O)CO)C(O)=C1O[C@H]1O[C@H](CO)[C@@H](O)[C@H](O)[C@H]1O	6.9
O=C(O[C@@H]1Cc2c(O)cc(O)cc2O[C@@H]1c1cc(O)c(O)c(O)c1)c1cc(O)c(O)c(O)c1 [Epigallocatechine gallate]	0.4
COc1ccc([C@@H]2CC(=O)c3c(O)cc(O[C@@H]4O[C@H](CO[C@@H]5O[C@@H](C)[C@H](O)[C@@H](O)[C@H]5O)[C@@H](O)[C@H](O)[C@H]4O)cc3O2)cc1O	41.6
COc1cc(/C=C/C(=O)O)ccc1O	35.5
O=C(O)[C@H]1O[C@@H](Oc2cc3oc(-c4ccccc4)cc(=O)c3c(O)c2O)[C@H](O)[C@@H](O)[C@@H]1O	32.3

[A] O=c1c(O)c(-c2ccc(O)c(O)c2)oc2cc(O)cc(O)c12
[B] O=C(O)c1cc(O)c(O)c(O)c1
Could you check which of A and B has a smaller value for Average of Relative Residual Trans-polydatin (percent)? Please indicate the selected item by its label.
B
(B: −0.3%, A: 24.8%)

---

protocol: Solution-based assay: residual trans-polydatin after irradiation with 1 molar equivalent of isomerization stabilizer
Type: physicochemical
protocolConditions: 0.5% by weight trans-polydatin in solution + 1 molar equivalent stabilizer; irradiated at 365 nm, 5 J total energy; HPLC-UV; per stabilizer
metricName: Average of Relative Residual Trans-polydatin (percent) (%)

compound	endpointResult
O=C(O)/C=C/c1ccc(O)cc1	38.6
O=c1cc(-c2ccc(O)c(O)c2)oc2cc(O)cc(O)c12	63.3
O=C1c2c(O)cc(O)cc2O[C@H](c2ccc(O)c(O)c2)[C@H]1O	38.3
COc1ccc([C@@H]2CC(=O)c3c(O)cc(O)cc3O2)cc1O	30.6

[a] O=c1cc(-c2ccccc2)oc2cc(O)c(O)c(O)c12
[b] Cc1cc(C(C)(C)C)c(O)c(C(C)(C)C)c1 [BHT, tert-butylhydroxytoluene]
[c] O=c1cc(-c2ccc(O)cc2)oc2cc(O)cc(O)c12
[d] O=C(O)C(O)c1ccccc1 (stereo not drawn)
[e] NC(=O)c1cccnc1 [Niacinamide]
Please give the order of these compounds when sorted by Average of Relative Residual Trans-polydatin (percent), largest value leading. Response field: labels, in requested order.
c, a, e, d, b
(c: 66.7%, a: 42.9%, e: −0.3%, d: −0.9%, b: −3.1%)
